Source: the NIST ThermoML archive (doi:10.1016/j.fluid.2005.06.011)

# assay.notes: refractive index (Na D-line) (dimensionless)
# experimental.setup: 308.15 K; 101.33 kPa; Liquid; Standard Abbe refractometry
Answer each item with its documented refractive index.
Give bare numbers.

Please supply refractive index for each of the following items, keeping them in order.
1. Cc1ccc(C)cc1 [1,4-dimethylbenzene]
2. C1CCCCC1 [cyclohexane]

Found:
1.4879
1.4205

Batch request: refractive index for each of the following compounds.
1. Cc1ccccc1 [toluene]
2. Cc1ccccc1C [1,2-dimethylbenzene]
3. c1ccccc1 [benzene]
4. CCCCOC(C)=O [butyl ethanoate]
5. Cc1cccc(C)c1 [1,3-dimethylbenzene]

Found:
[1.4885, 1.5031, 1.4921, 1.3908, 1.4946]

###

# experimental.setup: 308.15 K; 101.33 kPa; Liquid; Vibrating tube method
I'd be grateful if you could share measured mass density for these entries.
One number for each entry, in kg/m3.

See these solved cases before continuing.
C1CCCCC1    764.43
Cc1ccccc1    852.8
CCCCOC(C)=O [butyl ethanoate]    865.45
c1ccccc1    862.93
Cc1ccc(C)cc1    847.91
Cc1ccccc1C    867.41

Now take the following compound into account.
Lookup: Please look at this compound and report its mass density: Cc1cccc(C)c1
Found: 851.53
